Listing of recorded PBM binding z-score by entry.
# Test system: RARg:RXRa (NR concentration 270 nM, RXRa partner concentration 90 nM)
# ASSAY METHOD TEXT: PBM binding z-score (relative to random genomic background probes); higher = stronger binding; sequences stand for … in GC…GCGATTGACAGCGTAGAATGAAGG

Recorded results for 5 sequences are shown here.
In [3]: df
Out[3]:
                     monomer_sequence   result
0  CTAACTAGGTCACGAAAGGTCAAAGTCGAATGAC     7.92
1  CGAACTAGGTCTCCAGGACAGTGAAGAGGTTGGA  -0.0715
2  AGAATGAGGTTAAGATTAGGGAAACAGAATACAT     1.98
3  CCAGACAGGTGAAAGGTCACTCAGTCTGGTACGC     6.66
4  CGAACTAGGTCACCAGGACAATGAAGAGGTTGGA     4.27

Proceed to the following item.
Ask | Consider the sequence `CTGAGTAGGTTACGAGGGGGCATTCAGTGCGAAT` and give its recorded PBM binding z-score.
Reply | 3.13

* * *

# System: LXRb homodimer (NR concentration 270 nM)
# ASSAY METHOD TEXT: PBM binding z-score (relative to random genomic background probes); higher = stronger binding; sequences stand for … in GC…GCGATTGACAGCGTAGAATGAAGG
Recorded PBM binding z-score by entry
Note: the reply should be a number with no unit written.

>>> df
                     monomer_sequence                          target_or_system    measurement_label  measured_number
0  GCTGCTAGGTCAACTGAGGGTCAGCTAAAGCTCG  LXRb homodimer (NR concentration 270 nM)  PBM binding z-score            0.289
1  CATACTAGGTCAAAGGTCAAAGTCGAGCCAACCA  LXRb homodimer (NR concentration 270 nM)  PBM binding z-score             3.69
2  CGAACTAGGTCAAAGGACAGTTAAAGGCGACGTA  LXRb homodimer (NR concentration 270 nM)  PBM binding z-score           -0.158
3  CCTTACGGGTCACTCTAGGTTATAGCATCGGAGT  LXRb homodimer (NR concentration 270 nM)  PBM binding z-score            0.329
4  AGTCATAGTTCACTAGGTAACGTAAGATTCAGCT  LXRb homodimer (NR concentration 270 nM)  PBM binding z-score            0.233

Next sequence, please.
Ask | Tell me measured PBM binding z-score for `CTCGAAAGGTCGGTTGAGGTGAGTAAACGGATAA` please.
Reply | -0.228

* * *

// PBM binding z-score lookup, one value per entry
# System: PPARg DBDmut:RXRa IVT, anti-PPARg (DBD mutation: PPARg1 K132A/R137A, NR concentration 270 nM, RXRa partner concentration 90 nM)
# ASSAY METHOD TEXT: PBM binding z-score (relative to random genomic background probes); higher = stronger binding; sequences stand for … in GC…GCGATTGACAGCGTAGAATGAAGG
In your answer, state the number alone without any accompanying words.

>>> print(df.to_string())
                     monomer_sequence    measurement_label  measured_number
0  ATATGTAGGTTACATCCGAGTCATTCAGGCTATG  PBM binding z-score             4.51
1  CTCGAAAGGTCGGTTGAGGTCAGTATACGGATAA  PBM binding z-score           0.0267
2  TATACAGGATCAAAGGCCAGAGTACGAATGTCGA  PBM binding z-score            0.156

Ask | Input `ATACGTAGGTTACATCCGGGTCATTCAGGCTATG` , output reported PBM binding z-score.
Reply | 1.24

Ask | Hello, please tell me recorded PBM binding z-score for this one: `CCGACGGGGGCAAGGTTACCATAACGCACAGCCA`
Reply | 2.07

Ask | Could you please provide reported PBM binding z-score for `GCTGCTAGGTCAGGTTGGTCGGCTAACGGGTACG` ? Thanks!
Reply | -0.279

Ask | Supply measured PBM binding z-score of `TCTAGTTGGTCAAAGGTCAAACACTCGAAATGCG` in your reply.
Reply | 0.582

Ask | Given `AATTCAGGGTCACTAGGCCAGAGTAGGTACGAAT` , respond with its PBM binding z-score.
Reply | 5.15

* * *

# Tested on: VDR:RXRa (NR concentration 270 nM, RXRa partner concentration 90 nM)
# ASSAY METHOD TEXT: PBM binding z-score (relative to random genomic background probes); higher = stronger binding; sequences stand for … in GC…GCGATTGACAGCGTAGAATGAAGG
Classify on PBM binding z-score using Low: < 0.9; Medium: ≥ 0.9 and < 4; High: ≥ 4

>>> df
                     monomer_sequence  class_name
0  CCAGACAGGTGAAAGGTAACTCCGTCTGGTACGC         Low
1  AGTCAAAGTTCAGGACGAGGTAATGTAAAGCACG      Medium
2  CGAACTAGGTCAGAGCAGGACAGTGAAGGATGAT         Low

Ask | Could you tell me which band `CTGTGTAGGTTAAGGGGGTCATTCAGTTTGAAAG` belongs to?
Reply | High

Ask | Category of `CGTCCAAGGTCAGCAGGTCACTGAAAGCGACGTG` , please.
Reply | High

Ask | Looking at `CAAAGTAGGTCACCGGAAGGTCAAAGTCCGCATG` , which class would you pick?
Reply | High

Ask | Input `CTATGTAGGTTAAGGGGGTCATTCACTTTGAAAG` ; output its category
Reply | High

Ask | Lab note: sort `TCGAGTAGGTTACGGGGGTATTCAGGGATGAAGA` into the matching PBM binding z-score band.
Reply | Medium

* * *

# Tested on: PPARg:RXRa 270nM:90nM, anti-RXR (NR concentration 270 nM, RXRa partner concentration 90 nM)
# ASSAY METHOD TEXT: PBM binding z-score (relative to random genomic background probes); higher = stronger binding; sequences stand for … in GC…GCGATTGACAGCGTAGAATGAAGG
MEASUREMENT LABEL: PBM binding z-score
Number, no unit, nothing else.

Below: 5 sequences and their reported PBM binding z-score.
                     monomer_sequence  measured_number
0  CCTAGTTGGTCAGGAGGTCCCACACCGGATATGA            0.194
1  CTATGTAGGTTAAGGGGGTCATCCAGTTTGAAAG             7.67
2  CCTACTGGGCCAAAAATGTCATTGATGCCGATAA            0.911
3  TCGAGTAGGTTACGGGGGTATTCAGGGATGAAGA             4.53
4  CGAACTAGGTCACAAGGACAGTGAAGAGGTTGGA             7.01

Ask | Give PBM binding z-score for the following sequence: `ATCTCTAGGTGAAAGTTCAGTGAATCCCGAGGAT`
Reply | 9.55

Ask | Recall and state the measured PBM binding z-score for `TCGAGTAGGTTACGGGGGCATTCACGGATGAAGA` .
Reply | 6.16

Ask | State its PBM binding z-score: `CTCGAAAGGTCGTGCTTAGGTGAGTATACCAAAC`
Reply | 4.3

* * *

# Test system: LXRb:RXRa (NR concentration 270 nM, RXRa partner concentration 90 nM)
# ASSAY METHOD TEXT: PBM binding z-score (relative to random genomic background probes); higher = stronger binding; sequences stand for … in GC…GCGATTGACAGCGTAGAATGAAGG
Would you mind labelling by PBM binding z-score? At or over 5 is 1 (yes), under is 0 (no).

Reference set (5 entries):
In [3]: df
Out[3]:
                     monomer_sequence  class_name
0  TCGAGTAGGTTACGGGGACATTCAGGGATGAAGA      0 (no)
1  CAAACTAGGTCAAAGGTCAAAGCCGAGCCAACCA     1 (yes)
2  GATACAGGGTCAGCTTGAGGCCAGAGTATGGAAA      0 (no)
3  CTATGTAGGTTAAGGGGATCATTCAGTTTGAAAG      0 (no)
4  CCGAGTAGGTTACGAGGGGGTATTCAGTGCGAAT      0 (no)

Now look at this entry.
Ask | Entry `CGTCCAAGGTCAATGCTAGGCCAGTGAAAGCATT` : is its PBM binding z-score no less than 5?
Reply | 0 (no)

* * *

# Test system: VDR:RXRa (NR concentration 270 nM, RXRa partner concentration 90 nM)
# ASSAY METHOD TEXT: PBM binding z-score (relative to random genomic background probes); higher = stronger binding; sequences stand for … in GC…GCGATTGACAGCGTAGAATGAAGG
Grouping key: PBM binding z-score. Bins: LOW: < 1; MEDIUM: ≥ 1 and < 4; HIGH: ≥ 4

Take a look at these entries with their results.
>>> print(df.to_string())
                     monomer_sequence  class_name
0  TTACCGAGGTGAAAGGTCGTTGATGCACGCCTTG      MEDIUM
1  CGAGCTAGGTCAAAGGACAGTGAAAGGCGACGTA         LOW
2  AGTCAAAATTCACTAGGTAACGTAAGATTCAGCT         LOW
3  TCGAGTAGGTTACGGTGGCATTCAGGGATGAAGA         LOW
4  CCTACTGGGCCAAGGTCATAGATCAGTCAAAGCA      MEDIUM
5  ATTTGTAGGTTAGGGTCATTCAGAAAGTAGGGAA        HIGH

Ask | Lab note: sort `TCGAGTACGTTACGGGGGCATTCAGGGATGAAGA` into the matching PBM binding z-score band.
Reply | MEDIUM
